- experiment.summary: protease stability score; higher = more stable; yeast display proteolysis, trypsin and chymotrypsin
Collected protease stability score values appear next to each entry.
Respond with the number and no other words.

TEEDHHAKRMTKMWEEALITGNEHLVKEMFDPHARYRQGEWDLVGREEISKFVLTNLEEWRIDHHHTHSLHLQGEKSHVRSRVLGIFDGKRFETHLQVDVEVINGKIHDLTIRIT; 0.678
SEHDEELERWARLILHLLYTGNEEELRKMMDPDVRLNVNGRELHGWKKAMELWRIIKEHLRIHHVDIHDIDVFDGRNHVDIRINTNINGQEYIYKTEIIIVIIDGRMRSHEVRVK; 1.74
TELDKHVEDLLHRFIEALHTGNWEQLEHLVDPDARFDVDGRIHHGREWLLTHMTRIKNARIEFHHIEIYGDYISMRVIIHVNGQTRDFHLELITFNGRIKEVRIWHI; 2.34

For EEDEEVAYHFMEEWFHYVHTGNEEMLERMLDPDVKLTFDGKEFHGRETVLRAIIEWRIEHVRIKDFRFKVINGRAEIRLDGERRGQIDGVKRETRIIIEINVHKVDGKWKIERVELHTL , what is its reported protease stability score?
2.1

Thanks! And DHTHEAVEHLWKLLLHAIATGDFRILSHLLDPNVRIIFNGRTLVGRQSLEILLKRFDHEKIEEVRLRSTRIQGNFVDLDTEIIMVLHYDGKEYRIHTETHVHVVKVDGRWLIEELRID ?
2.62

---

- experiment.summary: protease stability score; higher = more stable; yeast display proteolysis, trypsin and chymotrypsin
measured.metric: protease stability score
Respond with the number and no other words.

These recorded examples may help you get a feel for the data.
DELDRRAKKMLRIWLEERFTGDEETVSKLADPDTRTQIHVGDKDLVSIGMESVSEFLRRMIHHWRIEHVKVKDTKVFDGVAHLHGEIHGNIDGQRVDVRLEVRVVVINGRIHSMSEEFT; 1.61
SEEEKHFEDALERWIRTTDTGDETKLIELMDPHVKVDINGQEFHGWKIVFRFMHHLIRRIDHIIIEVKHLRVYDGRVELDGIIRVRFDGRQMEYNSRFIALKFNGVWLLHSMHFH; 1.87

For SEEEEELRIANELVKRSLDTGDEDLERELADPNTRVNYGDKILHGRHEVVRWLRRIDHIHVHWRDVRIYNGRIEMDGRLVLRVGDKSFSLETRIYMEKVDGQWVIKDHEIR , what is its reported protease stability score?
0.314

Thanks! And DEREEESERWVRLLLHYLLTGDFRRIEELVDPNARSIIGDKRHHGREIVVEWMTRYKNARVEVKDFHIQGDKLQLHVEVQIDGRTFKLDIELYKVNGKWLLRTLHVEEL ?
1.44

Thanks! And DEQERRSRELLHLWLELFETGDEDNMQEFLDPNVRLIIIQGDNQVNHHGWENMVKIAKFYKNMQIKVHDVEFQGDKVIMDTRLLVDGRLRHTTVILDIVNGVIKHVEIRYS ?
1.69

Thanks! And DEEHRVIHNAVRILLEAIRTGDEETLRRLLDPHTRIEIGDKELHGWKDAIKFERDVWEILGIDHSEIRIKHVRIIGDKIEVEGEIINYVNGKEIVLDTNLIMRKIDGRWVFKSRKVN ?
1.23

---

- experiment.summary: protease stability score; higher = more stable; yeast display proteolysis, trypsin and chymotrypsin;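 note: relative to predicted unfolded state with 0 unfolded-like and 1 meaning tenfold more protease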
measured.metric: protease stability score
Respond with the number and no other words.

DEDEREMERWFQEILEDLRTGDFRSISRMVDPHAKVDVNGQERHGREQVENLIRRFKNATIHITHVDLDVVNGKLVVRIDTRLHVDGQTRKTEIIVISNKVNGRWFMESLSFKIE; 0.904
DERHETEERFLRTLIHSHMTGDEESHFEMMDPHAKLIYNGKEIHGMEVLRKELEEWRKKLGANHSHITIDHVELQGNKAHFDVTIDLIVDGRVIRTRIHIDIEKVDGRWIITRVIVK; 0.489
DEDEKRARHALTLLVHSFLTGNFEFTTELLDPHYKLHVGEKTYIGRKAIKEWIREFHERIPNIKLKDITIEHMTWVGEKVVVHSRVEGEVDGKEMFLQVEIIMEKVNGRWIVHSIHMN; 2.01
SEEEELARHIFELWIKTLRTGDEKLLRELADPHVQVILLVDGRHLENHGWEEFVRIFKEWRIHRVHVHDVKVFENRIHMDGTIDYEIGDKRFITKRIVDLVVINGRLKRLEIQIH; 2.66

For DEEKEEYRRAIEDWIKFFITGDFDLLKTLADPNARSEIGNYEFHGMEHISRRIVDIIERFKNMRYSVHSIDFQGDYVILHSYIIYGDKHLHLIVITYKFNGRWRFHSVRVE , what is its reported protease stability score?
1.26

Thanks! And SEHEEHIKRHIEHVIHHWMTGNWEELLRLMDPNVRLILHIGDKEIHSIGMEEILRRLHEYKKKIKNATIHIDHIDMQGDKTTIHETIHIGDYVYDTRIILVIVNGRIKRIEYQVH ?
0.128

---

Collected protease stability score values appear next to each entry.
- experiment.summary: protease stability score; higher = more stable; yeast display proteolysis, trypsin and chymotrypsin;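 note: relative to predicted unfolded state with 0 unfolded-like and 1 meaning tenfold more protease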
Respond with the number and no other words.

DEDHRDVERLFQFVEELLHTGDERVNEELADPNVRIDVNGVERHGREDMVTWLRTIEERYKNATFHTHHIRIQGNKLKVNGRIRQGDWSSDVDILYVKINGRWFIRELKVK; 1.49
SEEEHVMVEIVRKLTEAKHTGDFKTEHELMDPHARIDINGVEIHGMEEWRHLYEEWRFIVHRTHVRHVHVQGDKVDLKGEFRGVIDYDGREIEYNTKVNLHLHKVDGRWQLHDVKTT; 0.552
TEDEEFAFEIIRLFHEALLTGDEETLHHLVDPNARMQIGEFTTHGRSMVKFFNKRFDHWEMRVEFRRIHYIGDKVFVDTRIRILIEYNGRFIETSVEQRIVTRKIDGKWQITRLEIV; 1.05

For DEIDNELKTALRRLLHTWMTGDEDSLERLADPNVRFHQGDKDMHGREHMVKWFKEMIDRFPNLRIHDFIISEVRFFDGKAELIGTVLRTYGDKTDEVDFTIISTKIDGQWRIHEIRIN , what is its reported protease stability score?
1.26

Thanks! And DEIERESRKFFELWVHWYRTGNFEEIHKNLDPNARIEINGREIHGREDVLRLLEEIAKQFDHIEVELKDMHVQGDKMTIEGIIIFHFNGKRVEIHMIHIVLKINGQWFEHSQEYN ?
0.626

Thanks! And SEETEIIERAMKILLEILETGDEDRQRELMDPHYRLLIGDKVFHGREWAIKWAREIRVDRVELEDREIQGEKLLLHGHIHIRVGDKHHTMEVLIIVEKIDGRWRTHSRHVK ?
0.651

---

Collected protease stability score values appear next to each entry.
- experiment.summary: protease stability score; higher = more stable; yeast display proteolysis, trypsin and chymotrypsin;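 note: relative to predicted unfolded state with 0 unfolded-like and 1 meaning tenfold more protease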
Respond with the number and no other words.

These recorded examples may help you get a feel for the data.
DETKEAIDRLFEVIHRMMITGDEHEFMKLVDPNVKVIQGEKIYHGREVIVNMLREILKWAGVENIQSHLDPERVHIQGDKLLVRGRLELRIGDKSEERDVEFVVVKVDGRWLIRVWKIE; 2.74
DEEEETMRNIIMDWFRAMFTGDEERVNELLDPNARIEVGDKEWHGRDEFRKVLEHIRIHTRQIRIRRIDFFENRVHMDVQLDRELRFDGKTERIDVKLELFLVKIDGRWRFKETSVH; 2.57
DEDENIARHAMELYFKLFETGDFNTLSHLLDPNVRSNINGQTLHGRELMLKQFLDLWEHMGVDHIELKDSREHLVNGRVHRHFHGHLHVNGQTYEVHVRFIMVKVNGRWRHTSESISIR; 1.1
SEHEREAREHMEIFRRAFRTGDEQFLTELADPNVRVDVNGVELHGRENFLRVMRHIRFKDIRIKRSREINGVLFIDVRERGIVNGQETTFESEIIILKVDGRWIIEELIIL; 1.39

For SEDEELFKRAIEKLIHDLLTGNFEMLEHLLDPHTRVDFNGKIMHGREFVEDIRERFPNLKLELRIDDSSVINGRANIIGTLHFNVNGKFSTHEVHYHVNKFNGKWYIEEVRIK , what is its reported protease stability score?
1.32

---

- experiment.summary: protease stability score; higher = more stable; yeast display proteolysis, trypsin and chymotrypsin;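 note: relative to predicted unfolded state with 0 unfolded-like and 1 meaning tenfold more protease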
Decision: protease stability score compared against 1; not below it gives 1, below it gives -1.

DERDREVHLASELLHRIVRTGNEEVFEDYLDPNVRVRVNGVESWGMDSFKHWLKEIRIHSHEVDHFDVIGDKLHFDTRVDGEFDGRRDIYKSEVHAEKINGRWIFKIVIFR; 1
DESDKYVHHVAELMIEWFLTGDEELFEEYADPNMRVIFENHENHGREEVMKHMHDWWRKVKNVRVEYRIRDVQFQGDKARIEGELIIRIDGRNVIREVEYHILVIDGVLHSYKLVYK; 1
DEKEKESEDLAEIILKLWATGDEEIFEHLLDPNVWMIDEDEVFHGMEKVSEFLLRLREKLGVDHFRVHHIEIQGDKVHMDIRLEVNGKILKTHIRVIIINGRIHTVEIRIH; 1
SEDEKLDRDLHDLFRKLWETGDFDSLLKLADPTARFIYDFENHSEEEHGMHVYLKRLTERLRFFKGLQIEVDVIHVVNGVSHFELTMHIDGVRIKVEIEVITIDGRVREMRVRDN; -1

Read the next record carefully.
Answer whether protease stability score of DHEEEQVRLAFEIFKTLQETGDEELLHHFFDPNARSDVDGREVVGRHAVEEWQRDLGVDHIHVHKFTFIDGRVEMHFTYTQGDKVIKVHIYVHKVDGKWDMHRIHVR is greater than or equal to 1.
1
